All figures here come from BindingDB's records for doi:10.1021/jm00171a003.

// values below are reported pKi
molecular target: Vasopressin V1a receptor (Rattus norvegicus); test: Binding affinity against Vasopressin receptor in rat liver
Numbered stars: 1 amine (or outer) side, 2 acyl side, 3 side chain; on linkers, the order of the positions; unused ones are H or OH. Square brackets hold non-standard residues; d marks the D form. Peptide text beside a SMILES is read from it. X6 = CN(C)C[C@H]1C=NN([*:1])[C@H](C(=O)[*:2])C1; dPiz(1,6-dehydro) = O=C(O)[C@H]1CCC=NN1; X2 = CN1CCC[C@@H](C(=O)[*:2])N1[*:1]; X1 = CN1CCC[C@H](C(=O)[*:2])N1[*:1]; X7 = O=C([C@@H]1C=CC=NN1[*:1])[*:2]; dNMeF = CN[C@H](Cc1ccccc1)C(=O)O
pKi is defined as minus the log10 of a concentration measured in mol/L.

For orientation, consider the following solved cases.
What value of measured pKi is listed for CC[C@H](C)[C@@H]1NC(=O)[C@@H](Cc2ccccc2)NC(=O)[C@@H]2CCCN2C(=O)[C@@H](Cc2ccccc2)N(C)C(=O)[C@@H]2C[C@@H](CN(C)C)C=NN2C(=O)[C@H]2CCC=NN2C1=O (cyclo(I[dPiz(1,6-dehydro)][X6][dNMeF]P[dF])) ? 6.26

What value of measured pKi is listed for CC[C@H](C)[C@@H]1NC(=O)[C@@H](Cc2ccccc2)NC(=O)[C@@H]2CCCN2C(=O)[C@@H](Cc2ccccc2)N(C)C(=O)[C@@H]2C=CC=NN2C(=O)[C@H]2CCC=NN2C1=O (cyclo(I[dPiz(1,6-dehydro)][X7][dNMeF]P[dF])) ? 6.41

What value of measured pKi is listed for CC[C@H](C)[C@H]1C(=O)N2NCCC[C@@H]2C(=O)N2NCCC[C@H]2C(=O)N(C)[C@H](Cc2ccccc2)C(=O)N2CCC[C@H]2C(=O)N[C@H](Cc2ccccc2)C(=O)N1O ? 5.66

---
What value of measured pKi is listed for CC[C@H](C)[C@@H]1NC(=O)[C@@H](Cc2ccccc2)NC(=O)[C@@H]2CCCN2C(=O)[C@@H](Cc2ccccc2)N(C)C(=O)[C@@H]2CCCN(C)N2C(=O)[C@H]2CCCN(C)N2C1=O (cyclo(I[X1][X2][dNMeF]P[dF])) ? 5.13
